The reported measurements were obtained from PubChem BioAssay (EPA / NIEHS).

Read-out: Monocyte Chemoattractant Protein-1 (MCP1), CCL2 (gene 6347)
Run Description: BSK_CASM3C_MCP1: BioMAP Diversity Plus: CASM3C Assay for Monocyte Chemoattractant Protein-1 (MCP1) Biomarker Activity (AID 2283046);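 further: MCP-1 level quantified by ELISA 24 h after dosing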
Condition Summary: primary human coronary artery smooth muscle cells; actives raise or lower the signal
The source made the active and inactive calls. How the source made its calls: active means hit-call score of the fitted dose curve at least 0.9, where 1 is the maximum; inactive means score below 0.9.
The reply should name one outcome from active, inactive

# example entries with known answers
O=C1CCCCCCCCCCCCCCO1    active
CCCCCCCCCC=O    inactive
CCCCC(CC)COC(=O)/C=C\C(=O)OCC(CC)CCCC (stereo unspecified)    inactive
Cc1ccc2n[nH]nc2c1    inactive
CCCCC(CC)COCCC#N (stereo unspecified)    inactive

Moving on to another compound below.
Please indicate how the test categorized OC1OC[C@@H](O)[C@H](O)[C@H]1O (stereo partly specified) .
inactive
